Test system: A498 renal
Assay Protocol: NCI tumour cell line growth inhibition, 48 h
The compounds listed here are annotated with their GI50.

Examples from the recorded data:
OC1CCCC2CCC[N-]C12.OC1CCCC2CCC[N-]C12.[O]=[V][OH] (centres undefined) | 11.6 µM
Oc1[nH]c2ccccc2c1/C=c1/ccc2c(c1)N=C(c1ccc(C(F)(F)F)cc1)N=2 | 1.54 µM
O=C(NCCOCCOCCOCCNC(=O)c1cc2c(o1)C(=O)c1ccccc1C2=O)NC12CC3CC(CC(C3)C1)C2 | 1.69 µM

The record that follows has no GI50 shown yet.
The compound identified as "O=C(Nc1cc(Cl)ccc1O)c1ccccc1Nc1ccnc(C(F)(F)F)c1" registered its GI50 at 2.25 µM

Hello, the source for this data is PubChem BioAssay (NCI), in case you need it.
